For each record, write down the corresponding Ki.
Target: AC5 (Canis lupus familiaris, UniProt P30803)
Sequence (P30803 whole entry): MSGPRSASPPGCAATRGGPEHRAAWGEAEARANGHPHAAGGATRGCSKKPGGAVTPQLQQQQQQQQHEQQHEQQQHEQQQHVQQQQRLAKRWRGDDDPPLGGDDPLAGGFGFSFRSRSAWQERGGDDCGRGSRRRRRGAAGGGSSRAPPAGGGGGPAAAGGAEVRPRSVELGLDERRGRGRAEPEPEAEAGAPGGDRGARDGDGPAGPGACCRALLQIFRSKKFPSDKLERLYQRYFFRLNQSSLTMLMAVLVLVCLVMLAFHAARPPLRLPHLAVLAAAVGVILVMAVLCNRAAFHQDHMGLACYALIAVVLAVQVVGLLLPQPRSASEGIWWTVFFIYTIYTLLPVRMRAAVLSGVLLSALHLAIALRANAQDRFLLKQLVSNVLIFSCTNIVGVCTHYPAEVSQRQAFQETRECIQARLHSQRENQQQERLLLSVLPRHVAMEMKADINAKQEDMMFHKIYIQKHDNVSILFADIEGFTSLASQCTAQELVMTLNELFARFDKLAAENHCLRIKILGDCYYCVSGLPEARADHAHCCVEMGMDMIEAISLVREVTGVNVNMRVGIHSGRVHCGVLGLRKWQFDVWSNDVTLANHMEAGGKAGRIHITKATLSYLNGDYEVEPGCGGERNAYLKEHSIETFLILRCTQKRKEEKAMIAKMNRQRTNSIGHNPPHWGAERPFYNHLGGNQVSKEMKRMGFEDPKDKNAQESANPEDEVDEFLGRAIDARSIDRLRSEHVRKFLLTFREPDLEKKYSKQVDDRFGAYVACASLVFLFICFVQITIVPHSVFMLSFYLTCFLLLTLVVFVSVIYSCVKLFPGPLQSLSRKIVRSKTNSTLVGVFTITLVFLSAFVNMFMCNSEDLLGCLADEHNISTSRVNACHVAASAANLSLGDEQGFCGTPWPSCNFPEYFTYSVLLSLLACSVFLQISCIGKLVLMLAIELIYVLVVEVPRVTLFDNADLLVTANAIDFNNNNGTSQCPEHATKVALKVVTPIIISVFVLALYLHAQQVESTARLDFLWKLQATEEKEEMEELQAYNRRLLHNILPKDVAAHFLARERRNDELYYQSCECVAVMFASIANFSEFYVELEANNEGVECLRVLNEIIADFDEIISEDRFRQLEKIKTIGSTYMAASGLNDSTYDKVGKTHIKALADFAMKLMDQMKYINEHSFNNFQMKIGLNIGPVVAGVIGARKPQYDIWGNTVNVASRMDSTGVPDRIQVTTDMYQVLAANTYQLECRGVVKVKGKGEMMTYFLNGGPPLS
Assay: AC activity assay in Sf9 membranes expressing recombinant AC5
Assay type: biochemical, mammalian
Numbers only, in nM.

// each compound listed below needs its Ki
1. CNc1ccccc1C(=O)O[C@@H]1C[C@@H](COP(=O)(O)OP(=O)(O)OP(=O)(O)O)O[C@H]1n1cnc2c(N)ncnc21
2. CNc1ccccc1C(=O)O[C@H]1C[C@H](n2cnc3c(=O)[nH]c(N)nc32)O[C@@H]1COP(=O)(O)OP(=O)(O)OP(=O)(O)O
3. CNc1ccccc1C(=O)O[C@@H]1C[C@@H](COP(=O)(O)OP(=O)(O)OP(=O)(O)O)O[C@H]1n1cnc2c(=O)[nH]c(N)nc21
4. CNc1ccccc1C(=O)O[C@H]1C[C@H](n2cnc3c(N)ncnc32)O[C@@H]1COP(=O)(O)OP(=O)(O)OP(=O)(O)O

1: 65; 2: 410; 3: 1800; 4: 360

* * *

Target: VC1:IIC2 (UniProt P26769+P30803)
Sequence (P30803 398-765 limits assumed): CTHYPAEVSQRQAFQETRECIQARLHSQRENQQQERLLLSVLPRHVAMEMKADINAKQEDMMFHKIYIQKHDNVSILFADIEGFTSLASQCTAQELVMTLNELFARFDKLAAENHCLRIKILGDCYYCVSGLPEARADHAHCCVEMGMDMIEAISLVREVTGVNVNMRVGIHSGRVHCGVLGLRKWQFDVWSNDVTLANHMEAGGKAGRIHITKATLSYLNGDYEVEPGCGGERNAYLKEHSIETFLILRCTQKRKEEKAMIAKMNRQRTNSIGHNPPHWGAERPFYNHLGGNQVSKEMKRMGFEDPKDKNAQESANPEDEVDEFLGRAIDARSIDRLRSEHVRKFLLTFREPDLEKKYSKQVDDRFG
Sequence (P26769 821-1090 limits assumed): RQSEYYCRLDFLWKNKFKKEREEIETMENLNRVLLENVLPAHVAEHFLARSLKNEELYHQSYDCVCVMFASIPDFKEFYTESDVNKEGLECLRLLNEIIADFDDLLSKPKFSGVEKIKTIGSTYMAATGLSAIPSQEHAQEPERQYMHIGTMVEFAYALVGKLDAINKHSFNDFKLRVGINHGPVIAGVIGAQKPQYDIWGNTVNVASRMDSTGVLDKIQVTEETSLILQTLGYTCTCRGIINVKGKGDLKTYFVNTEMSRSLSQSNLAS
Sequence (P04896 whole entry partner): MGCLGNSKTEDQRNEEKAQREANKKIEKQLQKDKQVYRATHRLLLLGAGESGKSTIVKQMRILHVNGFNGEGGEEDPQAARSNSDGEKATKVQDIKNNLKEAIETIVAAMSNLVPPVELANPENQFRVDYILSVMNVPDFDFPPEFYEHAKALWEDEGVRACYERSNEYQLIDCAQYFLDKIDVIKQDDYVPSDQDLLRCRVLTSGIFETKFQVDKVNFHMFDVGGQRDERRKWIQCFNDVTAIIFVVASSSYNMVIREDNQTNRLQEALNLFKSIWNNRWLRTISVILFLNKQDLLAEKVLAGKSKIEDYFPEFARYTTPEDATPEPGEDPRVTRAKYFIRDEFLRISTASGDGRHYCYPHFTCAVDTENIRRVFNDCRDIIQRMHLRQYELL
Test: Inhibition of the catalytic activity of purified VC1:IIC2
Assay type: biochemical, mammalian
Conditions: VC1:IIC2 Mn2+ + FS + Gsα-GTPγS Ki, maximally stimulated: 10 mM MnCl2, 100 μM FS, 100 μM ATP, mean ± SD
measurement name: pKi
Numbers only, as −log10 of the molar value.

Here is how some compounds turned out for pKi.
>  <compound>
CNc1ccccc1C(=O)O[C@@H]1C[C@@H](COP(=O)(O)OP(=O)(O)OP(=O)(O)O)O[C@H]1n1cnc2c(N)ncnc21 [compound 7]

>  <measurement name>
pKi

>  <measured result>
7.05

$$$$
>  <compound>
CNc1ccccc1C(=O)O[C@H]1C[C@H](n2cnc3c(N)ncnc32)O[C@@H]1COP(=O)(O)OP(=O)(O)OP(=O)(O)O [compound 6]

>  <measurement name>
pKi

>  <measured result>
6.72

$$$$

Attention now turns to another entry.
Requested field: pKi. Item: CNc1ccccc1C(=O)O[C@@H]1C[C@@H](COP(=O)(O)OP(=O)(O)OP(=O)(O)O)O[C@H]1n1cnc2c(=O)[nH]c(N)nc21 [compound 3]
6.46

* * *

Target: AC2 (Rattus norvegicus, UniProt P26769)
Sequence (P26769 whole entry): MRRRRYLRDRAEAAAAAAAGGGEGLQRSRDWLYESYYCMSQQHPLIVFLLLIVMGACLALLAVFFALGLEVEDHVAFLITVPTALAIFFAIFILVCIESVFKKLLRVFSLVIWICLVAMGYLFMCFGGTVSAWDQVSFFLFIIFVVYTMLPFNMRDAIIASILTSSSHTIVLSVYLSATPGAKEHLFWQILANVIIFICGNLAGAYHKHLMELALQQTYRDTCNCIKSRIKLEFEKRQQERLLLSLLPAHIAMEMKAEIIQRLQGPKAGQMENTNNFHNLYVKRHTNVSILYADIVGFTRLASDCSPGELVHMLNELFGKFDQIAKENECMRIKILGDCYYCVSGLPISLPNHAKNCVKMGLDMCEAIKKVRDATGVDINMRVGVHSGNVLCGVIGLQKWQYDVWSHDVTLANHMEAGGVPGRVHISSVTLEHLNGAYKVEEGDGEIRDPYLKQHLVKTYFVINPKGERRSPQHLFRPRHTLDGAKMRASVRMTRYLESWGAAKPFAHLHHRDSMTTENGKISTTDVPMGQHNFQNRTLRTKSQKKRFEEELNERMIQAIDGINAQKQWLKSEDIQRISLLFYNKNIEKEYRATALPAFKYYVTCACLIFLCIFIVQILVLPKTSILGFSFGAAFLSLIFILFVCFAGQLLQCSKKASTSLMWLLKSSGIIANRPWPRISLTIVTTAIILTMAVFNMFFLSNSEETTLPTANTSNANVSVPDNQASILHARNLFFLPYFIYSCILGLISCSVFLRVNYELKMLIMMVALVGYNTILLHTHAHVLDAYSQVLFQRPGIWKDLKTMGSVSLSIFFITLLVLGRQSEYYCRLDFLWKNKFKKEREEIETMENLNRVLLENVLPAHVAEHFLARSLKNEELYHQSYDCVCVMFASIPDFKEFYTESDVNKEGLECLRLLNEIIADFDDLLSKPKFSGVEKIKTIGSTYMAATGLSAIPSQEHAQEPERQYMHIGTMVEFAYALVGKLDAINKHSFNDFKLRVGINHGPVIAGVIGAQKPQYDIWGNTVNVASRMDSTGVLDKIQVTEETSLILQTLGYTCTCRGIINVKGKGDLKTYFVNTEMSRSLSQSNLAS
Assay: AC activity assay in Sf9 membranes expressing recombinant AC2
Assay type: biochemical, mammalian
measurement name: Ki (µM)
Give bare numbers, in µM.

Here's what some known entries look like.
>  <smiles input>
CNc1ccccc1C(=O)O[C@@H]1C[C@@H](COP(=O)(O)OP(=O)(O)OP(=O)(O)O)O[C@H]1n1cnc2c(=O)[nH]c(N)nc21

>  <Ki, µM>
8.7

$$$$
>  <smiles input>
CNc1ccccc1C(=O)O[C@@H]1C[C@@H](COP(=O)(O)OP(=O)(O)OP(=O)(O)O)O[C@H]1n1cnc2c(N)ncnc21

>  <Ki, µM>
0.54

$$$$
>  <smiles input>
CNc1ccccc1C(=O)O[C@H]1C[C@H](n2cnc3c(=O)[nH]c(N)nc32)O[C@@H]1COP(=O)(O)OP(=O)(O)OP(=O)(O)O

>  <Ki, µM>
1.3

$$$$

Let's switch to this compound now.
Can you share its Ki? I mean this compound: CNc1ccccc1C(=O)O[C@H]1C[C@H](n2cnc3c(N)ncnc32)O[C@@H]1COP(=O)(O)OP(=O)(O)OP(=O)(O)O
4.8

Reference for the values: paper PMC3138873
